Measured values drawn from patent US9617283B2 for this set.

molecular target: BIR3 domain of human XIAP (residues 252-350) (Homo sapiens); construct: BIR3 domain of human XIAP (residues 252-350); His-tag (cleaved yes); made in house; host or cells: Escherichia coli; test: XIAP in vitro competitive displacement binding assay (fluorescence polarization); conditions: 1 h, percent inhibition (PI) at 0.04 μM; read-out: Xiap IC50 or PI μM
Sequence (P98170 252-350): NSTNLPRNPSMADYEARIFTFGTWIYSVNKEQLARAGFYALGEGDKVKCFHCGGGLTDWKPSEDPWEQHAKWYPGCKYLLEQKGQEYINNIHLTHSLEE
Counter-ions that a name gives are not always drawn.
Hi, to clarify the labels: rule met covers inhibition at 0.04 µM from 40% upward, rule not met covers anything below 40%.

Observe how each entry below is paired with its result.
input: Say whether C[C@@H]1CN(CC(=O)N2CC(C)(C)c3ncc(Cc4ccc(F)cc4)cc32)[C@@H](CN2CCC(C)(C)C2=O)CN1 [Example 4, dihydrochloride] shows inhibition at 0.04 µM of 40% or more.
output: rule not met

input: Reported inhibition at 0.04 µM at or above 40%? C[C@H]1CC(=O)N(C[C@H]2CN[C@H](C)CN2CC(=O)N2CC(C)(C)c3ncc(Cc4ccc(F)cc4F)cc32)C1 [Example 73, dihydrochloride]
output: rule met

input: Is it the case that C[C@H]1CC(=O)N(C[C@H]2CN[C@H](C)CN2CC(=O)N2CC(C)(C)c3cnc(Cc4ccc(F)cc4F)cc32)C1 [Example 74, dihydrochloride] has inhibition at 0.04 µM reaching or exceeding 40%?
output: rule met

input: Could you tell me if the measured inhibition at 0.04 µM of C[C@@H]1CN(CC(=O)N2CC(C)(C)c3ncc([C@@H](O)c4ccc(F)cc4)cc32)[C@@H](CN2Cc3ccccc3C2=O)CN1 reaches 40% or more?
output: rule met

Continuing:
input: Dear colleague, could you confirm whether CCCC(F)(F)c1cc2c(cn1)C(C)(C)CN2C(=O)CN1C[C@@H](C)NC[C@@H]1CN1C[C@H](C)CC1=O [Example 72, dihydrochloride] has inhibition at 0.04 µM at or above 40%?
output: rule met

* * *

target: BIR3 domain of human XIAP (residues 252-350) (Homo sapiens); construct: BIR3 domain of human XIAP (residues 252-350); His-tag (cleaved yes); made in house; host or cells: Escherichia coli; experiment: XIAP in vitro competitive displacement binding assay (fluorescence polarization); details: 1 h, percent inhibition (PI) at 0.04 μM; read-out: Xiap IC50 or PI μM
Structures can show the parent of a compound that is named as a salt.
experimental-endpoint: inhibition at 0.04 µM (%)
State the answer as a number, implicitly in %.

In plain terms, C[C@@H]1CN(CC(=O)N2CC(C)(C)c3cnc(Cc4ccc(F)cc4F)cc32)[C@@H](CN2C[C@H](C)N(C)CC2=O)CN1 [Example 81, dihydrochloride] has a documented inhibition at 0.04 µM of 52

The measured inhibition at 0.04 µM associated with C[C@@H]1CN(CC(=O)N2CC(C)(C)c3cnc(Cc4ccc(F)cc4)cc32)[C@@H](CN2C[C@H](C)OCC2=O)CN1 (single isomer, unassigned) reads 70

Then there is this compound:
The measured inhibition at 0.04 µM associated with C[C@@H]1CN(CC(=O)N2CC(C)(C)c3ncc([C@H](O)c4ccc(F)cc4)cc32)[C@@H](CN2Cc3ccccc3C2=O)CN1 [Example 84, dihydrochloride] reads 51

* * *

test system: EVSA-T (human breast carcinoma); assay: Anti-proliferative activity, Alamar Blue assay, EVSA-T; assay type: cell-based; conditions: EVSA-T cell line, 72 hours, Alamar Blue; dihydrochloride; read-out: EVSA-T prolif
Where a name gives a salt, the structure may show the parent alone.
Below: a set of entries, each annotated with reported EC50.
Note: unit nM is implicit; provide only the numeric part.

Below, each entry is followed by its recorded EC50 result.
Quick note, EC50 for CCC1CC(=O)N(C[C@H]2CN[C@H](C)CN2CC(=O)N2CC(C)(C)c3ncc(Cc4ccc(F)cc4)cc32)C1 (single isomer, unassigned) [Example 86, dihydrochloride] landed at 1.7

Entry CCC1CN(C[C@H]2CN[C@H](C)CN2CC(=O)N2CC(C)(C)c3ncc([C@@H](O)c4ccc(F)cc4)cc32)C(=O)CO1 (single isomer, unassigned) [Example 110, dihydrochloride] , EC50 reported as 290

Continue with the next molecule.
GET /value?item= CCC1CC(=O)N(C[C@H]2CN[C@H](C)CN2CC(=O)N2CC(C)(C)c3cnc(Cc4ccc(F)cc4F)cc32)C1 (single isomer, unassigned) [Example 87, dihydrochloride] &field=EC50 returns 1.2
